Data provenance is patent US12398154B2.

# Test System: KRas G12R (Homo sapiens, UniProt P01116, G12R);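 note: TR-FRET displacement assay of compound binding to KRas, read after one hour at room temperature, potency from a four-parameter fit of percent-of-control values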
# Sequence (P01116 1-169 isoform P01116-2 G12R): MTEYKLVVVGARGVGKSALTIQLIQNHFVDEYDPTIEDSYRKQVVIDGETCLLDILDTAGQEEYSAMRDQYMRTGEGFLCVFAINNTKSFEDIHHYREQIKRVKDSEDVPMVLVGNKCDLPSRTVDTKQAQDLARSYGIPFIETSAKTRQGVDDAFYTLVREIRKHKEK
# Assay Protocol: biochemical
pIC50: −log10 of the molar value.
Quantity Name: pIC50

compound="CCc1c(F)ccc2cc(O)cc(-c3ncc4c(N5CCCC(CS(N)(=O)=O)C5)nc(OC[C@@]56CCCN5C[C@H](F)C6)nc4c3F)c12 (stereo partly drawn)" test_system="KRas G12R (Homo sapiens, UniProt P01116, G12R)" result="≥ 8.70"
compound="O=S1(=O)NCC2(CCCN(c3nc(OC[C@@]45CCCN4C[C@H](F)C5)nc4c(F)c(-c5cc(O)cc6ccc(F)c(Cl)c56)ncc34)C2)N1 (stereo partly drawn)" test_system="KRas G12R (Homo sapiens, UniProt P01116, G12R)" result="≥ 8.70"
compound="CCc1c(F)ccc2cc(O)cc(-c3ncc4c(N5CCCC(O)CC5)nc(OC[C@@]56CCCN5C[C@H](F)C6)nc4c3F)c12 (stereo in doubt)" test_system="KRas G12R (Homo sapiens, UniProt P01116, G12R)" result="≥ 8.70"
